Cited source: patent US20240158455A1

# TEST_TARGET: HLA DRB5 01:01 (Homo sapiens, UniProt P01903+Q30154)
# EXPERIMENT_NOTES: Competitive binding assay of overlapping peptides to HLA
# EXPERIMENTAL_CONDITIONS: competitive binding to HLA DRB5 01:01, compared with reference H1N1 influenza peptide
RESULT_TYPE: Binding affinity

Below, each entry is followed by its recorded Binding affinity result.
{"columns": ["SUBSTANCE", "RESULT_TYPE", "VALUE_REPORTED"],
 "data": [
  ["Aa 116-130-SEQ ID NO: 1 (MVSNDNSPFFLVFFS; listed as Homo sapiens) [FABP7 #27]", "Binding affinity", "−"],
  ["Aa 58-72-SEQ ID NO: 2 (CTPMGKLGDSCHPLT; listed as Homo sapiens) [PROK2 #7]", "Binding affinity", "−"],
  ["Aa 82-96-SEQ ID NO: 1 (KSVVSLDGDKLVHIQ; listed as Homo sapiens) [FABP7 #17]", "Binding affinity", "−"],
  ["Aa 17-31-SEQ ID NO: 1 (FDEYMKALGVGFATR; listed as Homo sapiens) [FABP7 #4]", "Binding affinity", "++"]
]}

Exam item: Supply Binding affinity value. Item: Aa 88-102-SEQ ID NO: 2 (KRSKRKKEVPFFGRR; listed as Homo sapiens) [PROK2 #13]
Marked response: −

Exam item: Supply Binding affinity value. Item: Aa 131-145-SEQ ID NO: 1 (SPHTSHLLPSSSLLL; listed as Homo sapiens) [FABP7 #30]
Marked response: +

Exam item: Supply Binding affinity value. Item: Aa 118-132-SEQ ID NO: 6 (LTFGDVVAVRHYEKA; listed as Homo sapiens) [FABP7 #24]
Marked response: +
